Please respond with reported AUC(0-inf) for every item in the list.
# assay method text: Oral bioavailability in mice, Method B
# Format: in vivo
# experimental conditions: male, mouse; plasma, CD-1 mice, 10 mg/kg iv, Method B: values represent AUC0-last (footnote); read-out: AUC0-inf (iv) (converted)
Answer format: numeric, ng·h/mL implied, no suffix.

Fill in the blank: the reported AUC(0-inf) of Cc1ccccc1[C@]1(N)CCCCC1=O [Compound 114R, (R)-2-amino-2-(o-tolyl)cyclohexan-1-one] is ____.
325

Fill in the blank: the reported AUC(0-inf) of Cc1ccccc1[C@@]1(N)CCCCC1=O [Compound 114S, (S)-2-amino-2-(o-tolyl)cyclohexan-1-one] is ____.
757

Fill in the blank: the reported AUC(0-inf) of N[C@]1(c2ccccc2)CCCCC1=O [Compound 11S, (S)-2-amino-2-phenyl-cyclohexan-1-one] is ____.
3420

Fill in the blank: the reported AUC(0-inf) of [2H]C([2H])([2H])N[C@@]1(c2ccccc2)CCCCC1=O [Compound 88R] is ____.
1530

Fill in the blank: the reported AUC(0-inf) of N[C@@]1(c2ccccc2)CCCCC1=O [Compound 11R, (R)-2-amino-2-phenyl-cyclohexan-1-one] is ____.
5570

Fill in the blank: the reported AUC(0-inf) of CN[C@]1(c2cccc(F)c2)CCCCC1=O [Compound 19S] is ____.
1130

Origin of the recorded values: patent US11344510B2
